Measured shrunken log2 fold change of individual entries
# Test system: Escherichia coli TOP10;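 also: peptides expressed intracellularly from a pBAD plasmid library in pooled LB shake-flask culture, induced with 0.3% L-arabinose, DNA abundance read by NGS, three biological replicates, DESeq2 with apeglm shrinkage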
# ASSAY_NAME: shrunken log2 fold change of peptide-encoding DNA abundance (4.5 h post-induction vs induction); higher = less antimicrobial activity (less host growth inhibition)
# RUN_CONDITIONS: time post-induction: 4.5 h; library: site-saturation at positions 5, 18, 19, 20
READOUT_NAME: shrunken log2 fold change

INSERT INTO assay_data (construct_sequence, system_tested, readout_name, endpoint_result) VALUES
  ('RRIRLRPPRLPRPRPRPNPIPRP', 'Escherichia coli TOP10', 'shrunken log2 fold change', -0.237),
  ('RRIRFRPPRLPRPRPRPITPPRP', 'Escherichia coli TOP10', 'shrunken log2 fold change', -0.128),
  ('RRIRHRPPRLPRPRPRPHEFPRP', 'Escherichia coli TOP10', 'shrunken log2 fold change', 0.0248),
  ('RRIRGRPPRLPRPRPRPNHQPRP', 'Escherichia coli TOP10', 'shrunken log2 fold change', 0.0643),
  ('RRIRDRPPRLPRPRPRPEARPRP', 'Escherichia coli TOP10', 'shrunken log2 fold change', 1.96),
  ('RRIRCRPPRLPRPRPRPPTCPRP', 'Escherichia coli TOP10', 'shrunken log2 fold change', 0.183),
  ('RRIRVRPPRLPRPRPRPTIIPRP', 'Escherichia coli TOP10', 'shrunken log2 fold change', -0.479),
  ('RRIRSRPPRLPRPRPRPHTRPRP', 'Escherichia coli TOP10', 'shrunken log2 fold change', -0.453),
  ('RRIRWRPPRLPRPRPRPNDIPRP', 'Escherichia coli TOP10', 'shrunken log2 fold change', -0.565),
  ('RRIRVRPPRLPRPRPRPNGWPRP', 'Escherichia coli TOP10', 'shrunken log2 fold change', 0.0568),
  ('RRIRFRPPRLPRPRPRPQSVPRP', 'Escherichia coli TOP10', 'shrunken log2 fold change', -0.0251),
  ('RRIRPRPPRLPRPRPRPAIWPRP', 'Escherichia coli TOP10', 'shrunken log2 fold change', 0.405),
  ('RRIRSRPPRLPRPRPRPEIHPRP', 'Escherichia coli TOP10', 'shrunken log2 fold change', 0.0186),
  ('RRIRPRPPRLPRPRPRPRNVPRP', 'Escherichia coli TOP10', 'shrunken log2 fold change', 0.0758),
  ('RRIRQRPPRLPRPRPRPAFYPRP', 'Escherichia coli TOP10', 'shrunken log2 fold change', -0.0263),
  ('RRIRVRPPRLPRPRPRPAFDPRP', 'Escherichia coli TOP10', 'shrunken log2 fold change', -0.339),
  ('RRIRGRPPRLPRPRPRPVMPPRP', 'Escherichia coli TOP10', 'shrunken log2 fold change', 0.16),
  ('RRIRYRPPRLPRPRPRPVRRPRP', 'Escherichia coli TOP10', 'shrunken log2 fold change', 0.0834),
  ('RRIRMRPPRLPRPRPRPKLHPRP', 'Escherichia coli TOP10', 'shrunken log2 fold change', 0.325),
  ('RRIRVRPPRLPRPRPRPLEPPRP', 'Escherichia coli TOP10', 'shrunken log2 fold change', 0.236),
  ('RRIRCRPPRLPRPRPRPHDGPRP', 'Escherichia coli TOP10', 'shrunken log2 fold change', 0.0999),
  ('RRIRSRPPRLPRPRPRPKKHPRP', 'Escherichia coli TOP10', 'shrunken log2 fold change', -0.0966);
